pKi by entry:
# TARGET DESC: JNK3 (Homo sapiens, UniProt P53779)
# Construct: One such construct encodes amino acid residues Ser40-Glu402 of JNK3α1 and is preceded by Met and Gly residues; Met-Gly (initiation methionine plus glycine added for the NcoI site)
# Sequence (P53779 40-402): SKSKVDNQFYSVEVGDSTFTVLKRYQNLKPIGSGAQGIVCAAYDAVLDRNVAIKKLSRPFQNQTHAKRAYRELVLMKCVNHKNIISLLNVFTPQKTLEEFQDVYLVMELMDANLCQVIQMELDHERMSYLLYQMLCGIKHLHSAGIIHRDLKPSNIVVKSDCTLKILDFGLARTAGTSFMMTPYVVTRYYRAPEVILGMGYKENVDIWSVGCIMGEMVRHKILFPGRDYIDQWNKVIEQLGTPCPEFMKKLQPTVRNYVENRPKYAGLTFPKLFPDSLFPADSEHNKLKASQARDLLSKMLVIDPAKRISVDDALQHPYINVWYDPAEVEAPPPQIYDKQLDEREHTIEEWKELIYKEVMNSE
# ASSAY DETAILS: JNK inhibition assay: spectrophotometric coupled-enzyme assay with activated JNK3
# EXPERIMENTAL CONDITIONS: activated JNK3 10 nM, 10 μM ATP, 200 μM EGF receptor peptide, 30° C., competitive inhibition model
# Procedure: A BLAST search of the EST database using the published JNK3α1 cDNA as a query identified an EST clone (#632588) that contained the entire coding sequence for human JNK3α1. […] Compounds were assayed for the inhibition of JNK3 by a spectrophotometric coupled-enzyme assay. […] The decrease of absorbance at 340 nm was monitored as a function of time. […]
pKi: −log10 of the molar value.

As a guide, the following entries are already answered.
COc1cccc(C(=O)Nc2ccc3c(c2)/C(=N/O)C(=O)N3Cc2cc(F)cc3c2OCOC3)c1 [Compound 122]; ≤ 6.00
COc1cccc(OC)c1C(=O)Nc1ccc2c(c1)N(Cc1cc(F)cc3c1OCOC3)C(=O)/C2=N\O [Compound 340]; ≤ 6.00
O=C1/C(=N\O)c2ccccc2N1Cc1cccc(Cl)c1 [Compound 9]; ≤ 6.00
O=C(Cc1cccs1)Nc1ccc2c(c1)N(Cc1cc(F)cc3c1OCOC3)C(=O)/C2=N\O [Compound 219]; > 6.00
COC(=O)c1cccc(CN2C(=O)/C(=N/O)c3ccc(-c4cccc(OC)c4)cc32)c1 [Compound 176]; ≤ 6.00
O=C1/C(=N\O)c2cc(Cl)ccc2N1Cc1ccccc1 [Compound 45]; ≤ 6.00
O=C(Nc1ccc2c(c1)N(Cc1cc(F)cc3c1OCOC3)C(=O)/C2=N\O)N1CCOCC1 [Compound 269]; > 6.00
COc1cc(CN2C(=O)/C(=N\O)c3ccc(Br)cc32)cc(OC)c1 [Compound 151]; > 6.00
O=C1/C(=N\O)c2cc(-c3ccc(CO)cc3)ccc2N1Cc1cc(F)cc2c1OCOC2 [Compound 283]; ≤ 6.00
O=C(Nc1cccc(F)c1)c1ccc2c(c1)N(Cc1cc(F)cc3c1OCOC3)C(=O)/C2=N\O [Compound 229]; ≤ 6.00

Asked: Hello, I am looking for reported pKi with JNK3 (Homo sapiens, UniProt P53779) for O=C1/C(=N\O)c2cc(Cl)ccc2N1Cc1c(Cl)cccc1Cl [Compound 4] . Could you help?
Given back: > 6.00

Asked: Check Cc1cccc(CN2C(=O)/C(=N\O)c3cc(Cl)ccc32)c1 [Compound 49] too.
Given back: ≤ 6.00

Asked: Check O=C(NCCN1CCCCC1)c1ccc2c(c1)N(Cc1cc(F)cc3c1OCOC3)C(=O)/C2=N\O [Compound 298] too.
Given back: ≤ 6.00

Asked: Check COc1cc(CN2C(=O)/C(=N\O)c3cc(OC(F)(F)F)ccc32)cc(OC)c1 [Compound 107] too.
Given back: ≤ 6.00

Asked: Check O=C1/C(=N\O)c2cc(Br)ccc2N1Cc1cccc(F)c1 [Compound 28] too.
Given back: ≤ 6.00

Asked: Check CC(C)CN1C(=O)/C(=N\O)c2cc(Br)ccc21 [Compound 159] too.
Given back: ≤ 6.00

Asked: Check CC(C)c1ccc(-c2ccc3c(c2)N(Cc2cc(F)cc4c2OCOC4)C(=O)/C3=N\O)cc1 [Compound 334] too.
Given back: ≤ 6.00

The reported numbers originate from patent US7612065B2.
